Data provenance is patent US5273985A.

tested on: blood pressure drop induced by PAF; assay: Action on the blood pressure drop induced by PAF; assay type: in vivo, F344 rats; conditions: Rattus norvegicus, iv, 0.05 h; 0.01 mg/kg, i.v., three minutes after 0.5 μg/kg PAF; ratio of blood pressure rise to drop; read-out: Recovery rate
I would appreciate it if you labelled entries satisfied when inhibition in vivo at 0.01 mg/kg is 80% or higher, otherwise not satisfied.

The examples below pair each entry with its known result.
CCCCCCCCCCCCCCCCCCOc1c(OC)cc(COCC(COC(=O)N(Cc2cccc[n+]2CC)C(=O)c2ccccc2OC)OC)cc1OC (centres unmarked)
not satisfied
CCCCCCCCCCCCCCCCCCNS(=O)(=O)c1ccc(CNC(=O)OCC(COC(=O)N(Cc2cccc[n+]2CC)C(=O)c2ccccc2OC)OC)cc1 (centres unmarked)
satisfied
CCCCCCCCCCCCCCCCCCOC(=O)N1CCN(C(=O)OCC(COC(=O)N(Cc2cccc[n+]2CC)C(=O)c2ccccc2OC)OC)CC1 (centres unmarked)
satisfied
CCCCCCCCCCCCCCCCCCNC(=O)OCCCNC(=O)OCC(COC(=O)N(Cc1cccc[n+]1CC)C(=O)c1ccccc1OC)OC (centres unmarked)
satisfied
CC[n+]1ccccc1CN(C(=O)OCC(COC(=O)NCCc1ccc(S(N)(=O)=O)cc1)OC)C(=O)c1ccccc1OC (centres unmarked)
not satisfied
CCCCCCCCCCCCCCCCCCNC(=O)OC1CCN(C(=O)OCC(COC(=O)N(Cc2cccc[n+]2CC)C(=O)c2ccccc2OC)OC)CC1 (centres unmarked)
satisfied

Here's the next entry for you.
Request: Answer whether inhibition in vivo at 0.01 mg/kg of CCCCCOCCCCCOCCCCCNC(=O)OCC(COC(=O)N(Cc1cccc[n+]1CC)C(=O)c1ccccc1OC)OC (centres unmarked) is greater than or equal to 80%.
Result: not satisfied
